biological target: p-Akt3 in WM115 cells (Homo sapiens); construct: SureFire assays to detect cellular p-Akt1, p-Akt2 and p-Akt3 levels in WM115 cells (Akt2/3) and LNCaP cells (Akt1); endogenous in cells; host or cells: WM115 (ECACC 91061232), insulin-stimulated; experiment: Phospho-Akt cellular SureFire assay, p-Akt3 in WM115 cells; assay type: cell-based; details: insulin stimulated, read-out: Biological Assay 2 IC50 (nM) Akt3 WM115
Sequence (Q9Y243 whole entry): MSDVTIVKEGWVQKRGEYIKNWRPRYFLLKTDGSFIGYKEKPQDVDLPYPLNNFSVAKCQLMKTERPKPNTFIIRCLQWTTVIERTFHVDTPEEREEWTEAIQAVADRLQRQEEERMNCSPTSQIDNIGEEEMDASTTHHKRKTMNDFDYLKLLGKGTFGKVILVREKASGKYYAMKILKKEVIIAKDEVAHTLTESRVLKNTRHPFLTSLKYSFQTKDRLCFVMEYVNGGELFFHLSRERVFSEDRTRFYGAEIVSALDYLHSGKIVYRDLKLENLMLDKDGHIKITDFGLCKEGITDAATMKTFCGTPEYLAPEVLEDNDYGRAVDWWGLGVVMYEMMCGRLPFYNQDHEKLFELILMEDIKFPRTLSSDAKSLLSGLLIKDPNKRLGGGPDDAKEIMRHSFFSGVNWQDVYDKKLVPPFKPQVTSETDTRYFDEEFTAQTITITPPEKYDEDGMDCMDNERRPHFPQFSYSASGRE
metricName: IC50 (nM)

(A) COC(=O)N(C)[C@H]1CC[C@H](CC(=O)Nc2cnc(-c3ccc([C@]4(N)C[C@](C)(O)C4)cc3)c(-c3ccccc3)c2)CC1
(B) CC(=O)N(C)[C@H]1CC[C@H](CC(=O)Nc2cnc(-c3ccc(C(C)(C)N)cc3)c(-c3ccsc3)c2)CC1
QUERY: Lowest IC50? choose A or B Please indicate the selected item by its label.
RESULT: A
(A: 6 nM, B: 340 nM)
